What pest or weed control at 100 g/ha was measured for each of the following?
System: Venturia inaequalis
Test: Venturia test (apple)/protective
Assay type: in vivo
Conditions: Venturia inaequalis, 240 h, protective, application rate 100 g/ha, evaluation 10 days after inoculation, read-out: Efficacy in %
Answer format: number, then unit.

Problem: Record lookup: for Venturia inaequalis, what pest or weed control at 100 g/ha belongs to CCC(C)(C)CC(C)c1ccccc1NC(=O)C1=C(C)OCCS1 (stereo not shown) [drawing 96] ?
Solution: 100%

Problem: I'm curious: which pest or weed control at 100 g/ha was measured for CC(CC(C)(C)C)c1ccccc1NC(=O)c1cn(C)nc1Cl (stereo not shown) [drawing 101] tested on Venturia inaequalis?
Solution: 100%

Problem: Return pest or weed control at 100 g/ha measured with Venturia inaequalis given this compound: Cc1nc(C(F)(F)F)c(C(=O)Nc2ccccc2C(C)CC(C)(C)C)s1 (stereo not shown) [drawing 103]
Solution: 99%

Problem: Please provide the recorded pest or weed control at 100 g/ha for CC1=C(C(=O)Nc2ccccc2C(C)CC(C)(C)C)SCCO1 (stereo not shown) [drawing 95] , tested on Venturia inaequalis.
Solution: 100%

###

Experiment: logP determination by HPLC on reversed-phase column (C 18), EEC Directive 79/831 Annex V.A8
Format: physicochemical
Conditions: reversed-phase HPLC column (C 18), pH 2.3, 0.1% aqueous phosphoric acid and acetonitrile, 43° C.
I'd be grateful if you could share measured chromatographic logP for these entries.

Problem: Consider the molecule CC(CC(C)(C)C)c1ccccc1NC(=O)c1cn(C)nc1C(Cl)Cl (centres unmarked) [Example 1] and give its measured chromatographic logP.
Solution: 4.02

Problem: Name the recorded chromatographic logP for Cn1cc(C(=O)Cl)c(C(Cl)Cl)n1 [Example (II-1)] .
Solution: 1.8

###

Please respond with reported Efficacy in % for every item in the list.
Test system: Erysiphe graminis f.sp. hordei
Assay: Erysiphe test (barley)/protective
Assay type: in vivo
Conditions: protective, application rate 500 g/ha, evaluation 7 days after inoculation
Quick note: unit goes after the number.

Problem: Sample CCC(C)(C)CC(C)c1ccccc1NC(=O)c1ccoc1C (centres unmarked) [drawing 129] — what was its Efficacy in %?
Solution: 100%

Problem: # input compound: Cc1nc(C(F)(F)F)c(C(=O)Nc2ccccc2C(C)CC(C)(C)C)s1 (centres unmarked) [drawing 130] ; wanted: its Efficacy in %
Solution: 100%

Problem: Recorded Efficacy in % for Cc1ccsc1C(=O)Nc1ccccc1C(C)CC(C)(C)C (centres unmarked) [drawing 127] , please?
Solution: 100%

Problem: What does the data say about its Efficacy in %? Entry: Cc1nc(C)c(C(=O)Nc2ccccc2C(C)CC(C)(C)C)s1 (centres unmarked) [drawing 126]
Solution: 100%

Problem: Look up Efficacy in %: CCC(C)(C)CC(C)c1ccccc1NC(=O)C1=C(C)OCCS1 (centres unmarked) [drawing 128]
Solution: 94%

###

System: Venturia inaequalis
Experiment: Venturia test (apple)/protective
Format: in vivo
Conditions: Venturia inaequalis, 240 h, protective, application rate 100 g/ha, evaluation 10 days after inoculation, read-out: Efficacy in %
For each entry below, report its pest or weed control at 100 g/ha value.
Dear colleague, please return just the value in %, with no unit written.

Problem: Consider the compound CC(CC(C)(C)C)c1ccccc1NC(=O)c1cn(C)nc1C(F)(F)F (centres unmarked) [drawing 99] and give its measured pest or weed control at 100 g/ha.
Solution: 95

Problem: Record request: pest or weed control at 100 g/ha value, item CCC(C)(C)CC(C)c1ccccc1NC(=O)c1ccoc1C (centres unmarked) [drawing 97]
Solution: 93

Problem: I am curious: what pest or weed control at 100 g/ha value has been reported for Cc1ccsc1C(=O)Nc1ccccc1C(C)CC(C)(C)C (centres unmarked) [drawing 94] ?
Solution: 96

Problem: Please give the measured pest or weed control at 100 g/ha for this compound: CCC(C)(C)CC(C)c1ccccc1NC(=O)c1sccc1C (centres unmarked) [drawing 98]
Solution: 99

Problem: Which pest or weed control at 100 g/ha is reported for this compound? CCc1nn(C)c(Cl)c1C(=O)Nc1ccccc1C(C)CC(C)(C)C (centres unmarked) [drawing 100]
Solution: 92
